Entries and their pIC50
measured on: cdk2/cyclinA (Homo sapiens, UniProt P24941)
assay explanation: Cyclin-dependent kinase assay cdk2/cyclinA
API: returns pIC50 as number; meaning -log10 of concentration in mol/L.

Take a look at these entries with their results.
CC(C)N1C(=O)NCc2cnc(Nc3ccc(N4CCC(CCCN5CCOCC5)CC4)cc3)nc21 : 5.19
O=C1NCc2cnc(Nc3ccc(N4CCC(CCN5CCOCC5)CC4)cc3)nc2N1C1CCCC1 : 5.86
CC(C)n1c(=O)ncc2cnc(Nc3ccc(N4CCC(CCCN5CCOCC5)CC4)cc3)nc21 : 5.13
CN(C)C1CCN(c2ccc(Nc3ncc4c(n3)N(C3CCCC3)C(=O)NC4)cc2)CC1 : 5.88
CN1CCN(c2ccc(Nc3ncc4c(n3)N(C3CC5CCC3C5)C(=O)NC4)cc2)CC1 (stereo not shown) : 6.28

In: Bench note: what pIC50 did `O=C1NCc2cnc(Nc3ccc(-n4cccn4)cc3)nc2N1C1CCCC1` show?
Out: 5.88

In: Bench note: what pIC50 did CN1CCN(c2ccc(Nc3ncc4cnc(=O)n(C5CC6CCC5C6)c4n3)cc2)CC1 (stereo not shown) show?
Out: 5.99

====

measured on: cdc2/cyclinB (Homo sapiens)
Sequence (P06493 whole entry, species assumed): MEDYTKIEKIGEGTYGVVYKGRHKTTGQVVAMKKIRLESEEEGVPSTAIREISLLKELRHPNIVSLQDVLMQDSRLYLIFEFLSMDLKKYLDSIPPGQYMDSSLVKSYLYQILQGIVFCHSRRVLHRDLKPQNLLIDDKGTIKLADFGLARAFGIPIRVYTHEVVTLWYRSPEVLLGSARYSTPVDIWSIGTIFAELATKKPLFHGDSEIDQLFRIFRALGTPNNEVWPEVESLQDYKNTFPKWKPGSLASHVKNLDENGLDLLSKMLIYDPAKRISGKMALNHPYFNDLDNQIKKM
Sequence (P14635 whole entry partner, species assumed): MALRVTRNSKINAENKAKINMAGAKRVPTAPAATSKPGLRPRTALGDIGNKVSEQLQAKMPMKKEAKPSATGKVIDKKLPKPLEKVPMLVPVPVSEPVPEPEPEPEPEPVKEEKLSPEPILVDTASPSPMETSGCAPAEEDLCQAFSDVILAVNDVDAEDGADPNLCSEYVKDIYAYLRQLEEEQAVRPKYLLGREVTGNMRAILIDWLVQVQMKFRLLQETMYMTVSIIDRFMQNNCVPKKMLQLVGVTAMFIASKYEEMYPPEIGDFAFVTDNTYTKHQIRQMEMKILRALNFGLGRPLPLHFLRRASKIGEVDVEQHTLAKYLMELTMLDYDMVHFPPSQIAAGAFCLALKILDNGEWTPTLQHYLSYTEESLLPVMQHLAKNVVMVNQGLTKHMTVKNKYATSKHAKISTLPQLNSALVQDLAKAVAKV
assay explanation: Cyclin-dependent kinase assay cdc2/cyclinB (cdk1/B)
Label key: true means IC50 under 10 µM; false means IC50 of 10 µM or more.

Sample answers from the record:
CN1CCN(c2ccc(Nc3ncc4cnc(=O)n(C5CC6CCC5C6)c4n3)cc2)CC1 (stereo not shown) : true
CC(C)N1C(=O)NCc2cnc(Nc3ccc(N4CCC(CCCN5CCOCC5)CC4)cc3)nc21 : false
O=C1NCc2cnc(Nc3ccc(-n4cccn4)cc3)nc2N1C1CCCC1 : false
CN(C)C1CCN(c2ccc(Nc3ncc4c(n3)N(C3CCCC3)C(=O)NC4)cc2)CC1 : false
O=C1NCc2cnc(Nc3ccc(N4CCC(CCN5CCOCC5)CC4)cc3)nc2N1C1CCCC1 : false

In: Is IC50 of `CC(C)n1c(=O)ncc2cnc(Nc3ccc(N4CCC(CCCN5CCOCC5)CC4)cc3)nc21` strictly below 10 µM?
Out: false

====

Where a name gives a salt, the structure may show the parent alone.
Entries and their melting point

Take a look at these entries with their results.
CC1CN(c2ccc(Nc3ncc4c(n3)N(C3CCCC3)C(=O)NC4)cc2)CC(C)N1 (centres unmarked) : > 200 °C (dec.)
O=C1NCc2cnc(Nc3ccc(N4CCCCC4)cc3)nc2N1C1CCCC1 : 254 to 277 °C (dec.)
COc1cc(OC)cc(N2Cc3cnc(SC)nc3N=C2N)c1 : 198 to 204 °C
CC(C)n1c(=O)ncc2cnc(Nc3ccc(N4CCC(N(C)C)CC4)cc3)nc21 : > 100 °C (dec.)
CN1CCN(c2ccc(Nc3ncc4cnc(=O)n(C5CCCC5)c4n3)cc2)CC1 : 220 to 225 °C (dec.)

In: Bench note: what melting point did C[S+]([O-])c1ncc2c(n1)N(C1CCCC1)C(=O)NC2 (centres unmarked) show?
Out: 235 to 236 °C (dec.)

In: Bench note: what melting point did `CC(C)n1c(=O)ncc2cnc(Nc3ccc(N4CCN(C)CC4)cc3)nc21` show?
Out: 228 to 229 °C (dec.)

In: Bench note: what melting point did `O=c1ncc2cnc(Nc3ccc(N4CCC(CCN5CCOCC5)CC4)cc3)nc2n1C1CCCC1` show?
Out: > 140 °C (dec.)

In: Bench note: what melting point did `CN1C(=O)NCc2cnc(Nc3ccc(N4CCC(O)CC4)cc3)nc21.O=C(O)C(F)(F)F` show?
Out: 228 to 229 °C (dec.)

In: Bench note: what melting point did O=c1ncc2cnc(Nc3ccc(N4CCCC(O)C4)cc3)nc2n1C1CCCC1 (centres unmarked) show?
Out: > 135 °C (dec.)

In: Bench note: what melting point did O=C1NCc2cnc(Nc3ccc(N4CCCCC4CO)cc3)nc2N1C1CCCC1 (centres unmarked) show?
Out: 220 to 221 °C

In: Bench note: what melting point did CCNc1nc(SC)ncc1C=Nc1cc(OC)cc(OC)c1 [Example 48a] show?
Out: 100 to 105 °C

In: Bench note: what melting point did `O=C1NCc2cnc(Nc3ccc(N4CCC(O)CC4)cc3)nc2N1C1CCCC1` show?
Out: > 200 °C (dec.)

In: Bench note: what melting point did `CC(C)N1C(=O)NCc2cnc(Nc3ccc(N4CCC(O)CC4)cc3)nc21` show?
Out: > 120 °C (dec.)

In: Bench note: what melting point did CCN(CC)CCOc1ccc(Nc2ncc3c(n2)N(CC)C(=O)N(c2cc(OC)cc(OC)c2)C3)cc1 (as salt: salt) (hydrate or solvate) [Example 53a] show?
Out: 139 to 141 °C

In: Bench note: what melting point did `O=C1NCc2cnc(Nc3ccc(N4CCC(CCCO)CC4)cc3)nc2N1C1CCCC1` show?
Out: > 230 °C

In: Bench note: what melting point did `CN(C)C1CCN(c2ccc(Nc3ncc4c(n3)N(C3CCCC3)C(=O)NC4)cc2)CC1` show?
Out: > 200 °C (dec.)
